- Test system: endoplasmic reticulum calcium (D1ER sensor)
- ASSAY_PROTOCOL: D1ER cameleon calcium FRET sensor in HEK293 cells (ER calcium depletion), spectral mode
- Type: cell-based, human
- CONDITION: Homo sapiens, HEK293, 2 h; ER calcium depletion at 120 min time point; read-out: equilibrium constant of sigmoidal D1ER FRET response
pEC50: −log10 of the molar value.
QUANTITY: pEC50

INSERT INTO results (entry_smiles, reported) VALUES
  ('C/C=C(/C)C(=O)O[C@H]1C(C)=C2[C@H]([C@@H]1OC(=O)CCCCCCC)[C@@](C)(OC(C)=O)C[C@H](OC(=O)CCC)[C@@]1(O)[C@H]2OC(=O)[C@@]1(C)O', 8.71);
